Below are IC50 values recorded for UniProt:P04585.
observed_property: IC50 (nM)

1. CC1CN(Cc2ccc(Br)c(Oc3cc(Cl)cc(C#N)c3)c2F)C(=O)NC1=O (stereo not shown) ... 85.8
2. Cc1cc(=O)[nH]c(=O)n1Cc1ccc(Br)c(Oc2cc(Cl)cc(C#N)c2)c1F ... 26.1
3. N#Cc1cc(Cl)cc(Oc2c(Br)ccc(Cn3ccc(=O)[nH]c3=O)c2F)c1 ... 3.6
4. Cc1cn(Cc2ccc(Br)c(Oc3cc(C#N)cc(C(F)F)c3)c2F)c(=O)[nH]c1=O ... 3.3

====

molecular target: HIV-1 RT (Human immunodeficiency virus type 1 group M subtype B, UniProt P04585)
observed_property: IC50

1) N#Cc1cc(Cl)cc(Oc2c(Br)ccc(CN3CC(=O)NC3=S)c2F)c1 [Compound I-28] ... 86 nM
2) N#Cc1cc(Cl)cc(Oc2c(Br)ccc(Cn3cc(Cl)c(=O)[nH]c3=O)c2F)c1 [Compound I-4] ... 4.1 nM
3) COc1cn(Cc2ccc(Br)c(Oc3cc(Cl)cc(C#N)c3)c2F)c(=O)[nH]c1=O [Compound I-19] ... 2.9 nM
4) CN1C(=O)NC(=O)C1Cc1ccc(Br)c(Oc2cc(Cl)cc(C#N)c2)c1F (centres unmarked) [Compound I-32] ... 6.3 nM
5) Cc1cn(CCc2ccc(Br)c(Oc3cc(Cl)cc(C#N)c3)c2F)c(=O)[nH]c1=O [Compound I-14] ... 7 nM
6) Cc1cn(Cc2ccc(Br)c(Oc3cc(Cl)cc(C#N)c3)c2F)c(=O)[nH]c1=O [Compound I-2] ... 3.9 nM
7) N#Cc1cc(C#N)cc(Oc2c(Br)ccc(Cn3ccc(=O)[nH]c3=O)c2F)c1 [Compound I-11] ... 22.9 nM
8) CCc1cn(Cc2ccc(Br)c(Oc3cc(C#N)cc(C#N)c3)c2F)c(=O)[nH]c1=O [Compound I-10] ... 13.5 nM
